Provenance of the data: patent EP4813381A1

- method: physchem
- details: water, 37 °C, thermodynamic from solid
metric.name: solubility (µg/mL)
Note: unit µg/mL is implicit; provide only the numeric part.

Value of solubility reported for the compound `C=C1C(=O)O[C@H]2[C@H]1CCC(C)=C1CC[C@@](C)(OC(=O)N3CCCCC3)[C@@H]12` is 152

====

I'd appreciate it if you could supply Release rate values for the items below.
- method: Conversion rate of salt-form prodrugs to parent compound in HEPES buffer solution
- Assay type: physicochemical
- details: conversion to Compound 1, HEPES buffer pH 7.4, 37 °C, 2 h
- Experimental: Adjust the pH to 7.4 using 0.5 M NaOH, then dilute to a final volume 100 mL with distilled water. Sample Analysis: Dissolve 0.6 mg of the compound in 250 µl of deionized water separately. Add 250 µl of mouse serum or HEPES 7.4 solution to the sample, incubate at a constant temperature of 37 °C, and collect samples at different time points. Pipette 20 µl of the sample to an EP tube, add 60 µl of methanol, vortex to mix thoroughly, and centrifuge at 12,000 rpm at 4 °C for 10 min. […]
Note: unit % is implicit; provide only the numeric part.

Value of Release rate reported for the compound `CC(C)N(C[C@@H]1C(=O)O[C@H]2[C@H]1CC[C@@]1(C)C[C@]13CC[C@@](C)(O)[C@H]23)C(C)C` is 14.0

Value of Release rate reported for the compound CN(C)C[C@@H]1C(=O)O[C@H]2[C@H]1CC[C@@]1(C)C[C@]13CC[C@@](C)(O)[C@H]23 [compound 39] is 15.0

Value of Release rate reported for the compound `C[C@@]12CC[C@@H]3[C@H](OC(=O)[C@H]3CN3CCCC3)[C@@H]3[C@]1(CC[C@@]3(C)O)C2` is 14.8

Value of Release rate reported for the compound `C[C@@]12CC[C@@H]3[C@H](OC(=O)[C@H]3CN3CCCCC3)[C@@H]3[C@]1(CC[C@@]3(C)O)C2` is 15.1

Value of Release rate reported for the compound `C[C@@]12CC[C@@H]3[C@H](OC(=O)[C@H]3CN3CCOCC3)[C@@H]3[C@]1(CC[C@@]3(C)O)C2` is 14.1

Value of Release rate reported for the compound `CCN(CC)C[C@@H]1C(=O)O[C@H]2[C@H]1CC[C@@]1(C)C[C@]13CC[C@@](C)(O)[C@H]23` is 14.5

Value of Release rate reported for the compound `CCOC(=O)[C@@H]1CCCN1C[C@@H]1C(=O)O[C@H]2[C@H]1CC[C@@]1(C)C[C@]13CC[C@@](C)(O)[C@H]23` is 14.3
